Task for the reader: assign each of the following molecules its reported IC50.
target: Ca^2 + channels (Rattus norvegicus); construct: rat cardiac microsomes (source of Ca^2 + channels); assay: [^3 H]-Nitrendipine binding assay (affinity for calcium channels); conditions: rat cardiac microsomes, 0.5 nM [^3 H]-nitrendipine, 60 minutes at 25°
Sequence (P22002 whole entry, other chains not shown): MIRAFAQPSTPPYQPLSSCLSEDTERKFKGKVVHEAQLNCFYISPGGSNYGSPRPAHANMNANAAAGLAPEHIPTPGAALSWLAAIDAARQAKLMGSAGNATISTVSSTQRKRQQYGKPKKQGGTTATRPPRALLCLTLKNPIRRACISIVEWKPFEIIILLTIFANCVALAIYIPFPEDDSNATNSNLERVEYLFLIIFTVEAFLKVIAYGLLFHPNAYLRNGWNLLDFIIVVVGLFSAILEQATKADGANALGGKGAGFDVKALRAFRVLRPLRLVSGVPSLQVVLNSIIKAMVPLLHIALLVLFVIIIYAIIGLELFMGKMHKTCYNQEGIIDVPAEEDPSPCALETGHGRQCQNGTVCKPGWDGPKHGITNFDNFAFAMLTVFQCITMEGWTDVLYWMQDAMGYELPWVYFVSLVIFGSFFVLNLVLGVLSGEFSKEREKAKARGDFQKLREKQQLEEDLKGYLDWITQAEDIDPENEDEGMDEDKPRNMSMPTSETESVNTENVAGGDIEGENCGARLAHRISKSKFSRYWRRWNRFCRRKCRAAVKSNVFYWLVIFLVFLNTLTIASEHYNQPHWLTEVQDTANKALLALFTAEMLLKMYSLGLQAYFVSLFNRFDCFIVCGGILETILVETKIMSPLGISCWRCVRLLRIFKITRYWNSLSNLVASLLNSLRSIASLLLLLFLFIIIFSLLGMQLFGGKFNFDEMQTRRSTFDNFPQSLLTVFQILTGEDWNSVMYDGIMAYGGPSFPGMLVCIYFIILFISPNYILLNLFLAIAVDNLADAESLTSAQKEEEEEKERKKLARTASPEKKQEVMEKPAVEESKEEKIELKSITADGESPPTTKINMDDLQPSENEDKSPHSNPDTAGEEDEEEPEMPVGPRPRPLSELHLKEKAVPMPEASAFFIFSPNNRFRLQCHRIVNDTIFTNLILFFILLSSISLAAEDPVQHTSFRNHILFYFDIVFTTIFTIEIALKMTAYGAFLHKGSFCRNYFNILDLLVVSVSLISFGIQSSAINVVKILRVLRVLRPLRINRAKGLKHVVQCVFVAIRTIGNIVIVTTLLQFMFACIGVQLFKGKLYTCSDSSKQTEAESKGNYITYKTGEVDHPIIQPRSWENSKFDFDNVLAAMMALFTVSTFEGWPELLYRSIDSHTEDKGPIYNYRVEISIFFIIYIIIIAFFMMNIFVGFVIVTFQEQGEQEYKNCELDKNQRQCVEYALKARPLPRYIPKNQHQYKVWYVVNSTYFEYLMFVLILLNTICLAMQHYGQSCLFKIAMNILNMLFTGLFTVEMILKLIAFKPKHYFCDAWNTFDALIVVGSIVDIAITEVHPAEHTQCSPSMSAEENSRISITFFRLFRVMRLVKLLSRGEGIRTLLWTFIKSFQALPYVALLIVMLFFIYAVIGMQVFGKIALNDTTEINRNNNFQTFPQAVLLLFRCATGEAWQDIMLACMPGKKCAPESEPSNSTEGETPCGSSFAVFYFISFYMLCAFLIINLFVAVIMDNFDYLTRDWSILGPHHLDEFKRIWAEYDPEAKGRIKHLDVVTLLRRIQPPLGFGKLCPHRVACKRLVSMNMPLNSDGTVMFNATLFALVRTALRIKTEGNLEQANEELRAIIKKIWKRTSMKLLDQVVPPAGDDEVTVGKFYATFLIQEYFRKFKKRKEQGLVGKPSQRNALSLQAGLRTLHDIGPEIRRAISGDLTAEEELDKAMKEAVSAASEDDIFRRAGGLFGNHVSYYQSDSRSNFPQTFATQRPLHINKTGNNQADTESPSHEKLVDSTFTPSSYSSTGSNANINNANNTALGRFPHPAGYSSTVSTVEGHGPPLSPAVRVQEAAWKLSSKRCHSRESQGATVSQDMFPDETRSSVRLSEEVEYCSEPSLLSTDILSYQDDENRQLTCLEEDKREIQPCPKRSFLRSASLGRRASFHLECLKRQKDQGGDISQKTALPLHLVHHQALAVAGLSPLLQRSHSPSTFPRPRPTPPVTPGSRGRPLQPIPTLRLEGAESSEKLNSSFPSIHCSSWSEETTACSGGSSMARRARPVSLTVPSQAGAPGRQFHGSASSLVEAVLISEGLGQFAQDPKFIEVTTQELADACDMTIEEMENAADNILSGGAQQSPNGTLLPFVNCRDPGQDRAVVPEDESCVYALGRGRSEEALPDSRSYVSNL
Sequence (P54290 25-944 partner limits assumed, other chains not shown): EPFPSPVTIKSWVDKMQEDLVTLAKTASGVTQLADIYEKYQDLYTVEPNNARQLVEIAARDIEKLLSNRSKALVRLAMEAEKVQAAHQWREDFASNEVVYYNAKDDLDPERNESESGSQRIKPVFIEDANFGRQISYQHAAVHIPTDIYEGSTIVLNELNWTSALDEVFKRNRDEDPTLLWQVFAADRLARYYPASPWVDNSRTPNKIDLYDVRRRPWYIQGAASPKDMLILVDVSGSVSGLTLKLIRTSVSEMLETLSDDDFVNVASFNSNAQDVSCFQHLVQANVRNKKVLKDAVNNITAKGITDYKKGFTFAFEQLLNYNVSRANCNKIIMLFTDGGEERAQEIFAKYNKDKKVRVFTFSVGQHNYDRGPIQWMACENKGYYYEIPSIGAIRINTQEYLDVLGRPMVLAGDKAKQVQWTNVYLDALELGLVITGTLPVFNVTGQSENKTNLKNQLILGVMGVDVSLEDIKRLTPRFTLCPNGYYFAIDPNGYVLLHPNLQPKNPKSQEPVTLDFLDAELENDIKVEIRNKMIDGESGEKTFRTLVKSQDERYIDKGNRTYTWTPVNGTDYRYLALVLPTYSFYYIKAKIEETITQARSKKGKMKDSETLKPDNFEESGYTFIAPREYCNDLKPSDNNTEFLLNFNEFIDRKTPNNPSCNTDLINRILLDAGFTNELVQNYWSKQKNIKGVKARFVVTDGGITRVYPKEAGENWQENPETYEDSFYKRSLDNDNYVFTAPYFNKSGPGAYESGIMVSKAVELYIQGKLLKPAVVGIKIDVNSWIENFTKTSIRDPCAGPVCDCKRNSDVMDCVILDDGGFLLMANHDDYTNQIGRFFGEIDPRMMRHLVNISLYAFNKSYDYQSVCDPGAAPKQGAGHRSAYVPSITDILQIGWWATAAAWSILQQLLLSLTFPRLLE
Sequence (P54290 945-1091 partner limits assumed, other chains not shown): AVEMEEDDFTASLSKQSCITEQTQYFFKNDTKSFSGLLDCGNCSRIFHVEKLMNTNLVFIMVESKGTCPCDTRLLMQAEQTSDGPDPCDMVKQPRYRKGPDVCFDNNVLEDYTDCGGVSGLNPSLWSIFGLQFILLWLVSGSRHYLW
Field format: number, assumed nM, no unit text.

Fill blank: measured IC50 of the molecule COc1ccccc1N1CCN(CCCCOC(=O)C2=C(C)NC(C)=C([N+](=O)[O-])C2c2cccc(C(F)(F)F)c2)CC1 (stereo not shown) is ____.
990

Fill blank: measured IC50 of the molecule COc1ccccc1N1CCN(CCOC(=O)C2=C(C)NC(C)=C([N+](=O)[O-])C2c2ccccc2C(F)(F)F)CC1 (stereo not shown) is ____.
29

Fill blank: measured IC50 of the molecule CCOC(=O)C1=C(C)NC(C)=C([N+](=O)[O-])C1c1ccccc1OCCCCN1CCN(c2ccccc2OC)CC1 (stereo not shown) is ____.
470

Fill blank: measured IC50 of the molecule COC(=O)C1=C(C)NC(C)=C([N+](=O)[O-])C1c1ccccc1OCCN1CCN(c2ccccc2OC)CC1 (stereo not shown) is ____.
850

Fill blank: measured IC50 of the molecule COC(=O)C1=C(C)NC(C)=C([N+](=O)[O-])C1c1cccc(OCCCN2CCN(c3ccccc3Cl)CC2)c1 (stereo not shown) is ____.
2300

Fill blank: measured IC50 of the molecule COC(=O)C1=C(C)NC(C)=C([N+](=O)[O-])C1c1cccc(OCCCCN2CCN(c3ccccc3OC)CC2)c1 (stereo not shown) is ____.
4100

Fill blank: measured IC50 of the molecule COc1ccccc1N1CCN(CCCCOc2ccccc2C2C(C(=O)OC(C)(C)C)=C(C)NC(C)=C2[N+](=O)[O-])CC1 (stereo not shown) is ____.
470

---

tested on: guinea pig left atria; assay: Positive inotropic effect in guinea pig left atria; conditions: left atria paced at 2Hz, 37°, cumulative addition to maximum 10^-4; read-out: EC50 (concentration that increases DT by 50% above the control DT)
pEC50: −log10 of the molar value.
Task for the reader: assign each of the following molecules its reported pEC50.

Fill blank: measured pEC50 of the molecule COC(=O)C1=C(C)NC(C)=C([N+](=O)[O-])C1c1cccc([N+](=O)[O-])c1OCCCCCN1CCN(c2ccccc2OC)CC1 (stereo not shown) is ____.
< 4.00

Fill blank: measured pEC50 of the molecule COC(=O)C1=C(C)NC(C)=C([N+](=O)[O-])C1c1cccc(OC)c1OCCCCCN1CCN(c2ccccc2OC)CC1 (stereo not shown) is ____.
< 4.00

Fill blank: measured pEC50 of the molecule CCOC(=O)C1=C(C)NC(C)=C([N+](=O)[O-])C1c1cccc(OCCCN2CCN(c3ccccc3OC)CC2)c1 (stereo not shown) is ____.
< 4.00

Fill blank: measured pEC50 of the molecule CCOc1cccc(C2C(C(=O)OC)=C(C)NC(C)=C2[N+](=O)[O-])c1OCCCCN1CCN(c2ccccc2OC)CC1 (stereo not shown) is ____.
< 4.00

Fill blank: measured pEC50 of the molecule COC(=O)C1=C(C)NC(C)=C([N+](=O)[O-])C1c1cccc(OCC=CCN2CCN(c3ccccc3OC)CC2)c1 (stereo not shown) is ____.
< 4.00

Fill blank: measured pEC50 of the molecule COC(=O)C1=C(C)NC(C)=C([N+](=O)[O-])C1c1cccc(OC)c1OCCCCN1CCN(c2ccccc2OC)CC1 (stereo not shown) is ____.
< 4.00

Fill blank: measured pEC50 of the molecule COC(=O)C1=C(C)NC(C)=C([N+](=O)[O-])C1c1cc(Br)ccc1OCCCCN1CCN(c2ccccc2OC)CC1 (stereo not shown) is ____.
< 4.00

---

Task for the reader: assign each of the following compounds its reported log10 of IC50.
target: alpha1 -adrenoceptors; assay: [^3 H]-prazosin binding assay (affinity for alpha1-adrenoceptors); details: rat brain membranes, 0.2 nM [^3 H]-prazosin, 60 minutes at 25°
A difference of one corresponds to tenfold IC50; all values are log10 with IC50 in nM.

Fill blank: measured log10 of IC50 of the compound COc1ccccc1N1CCN(CCOC(=O)C2=C(C)NC(C)=C([N+](=O)[O-])C2c2cccc(C(F)(F)F)c2)CC1 (centres unmarked) [Example 1] is ____.
2.98

Fill blank: measured log10 of IC50 of the compound COC(=O)C1=C(C)NC(C)=C([N+](=O)[O-])C1c1cccc(OCCN2CCN(c3ccccc3OC)CC2)c1 (centres unmarked) [Example 69] is ____.
2.54

Fill blank: measured log10 of IC50 of the compound COC(=O)C1=C(C)NC(C)=C([N+](=O)[O-])C1c1cccc(OC)c1OCCCN1CCN(c2ccccc2OC)CC1 (centres unmarked) [Example 106] is ____.
2.15

Fill blank: measured log10 of IC50 of the compound COC(=O)C1=C(C)NC(C)=C([N+](=O)[O-])C1c1ccccc1OCCN1CCN(c2ccccc2OC)CC1 (centres unmarked) [Example 58] is ____.
2.11

Fill blank: measured log10 of IC50 of the compound COC(=O)C1=C(C)NC(C)=C([N+](=O)[O-])C1c1ccccc1OCCCCCCN1CCN(c2ccccc2OC)CC1 (centres unmarked) [Example 129] is ____.
2.58

Fill blank: measured log10 of IC50 of the compound COc1ccccc1N1CCN(CCOC(=O)C2=C(C)NC(C)=C([N+](=O)[O-])C2c2ccccc2Cl)CC1 (centres unmarked) [Example 5] is ____.
2.69

Fill blank: measured log10 of IC50 of the compound COC(=O)C1=C(C)NC(C)=C([N+](=O)[O-])C1c1cc([N+](=O)[O-])ccc1OCCCCN1CCN(c2ccccc2OC)CC1 (centres unmarked) [Example 138] is ____.
2.45

Fill blank: measured log10 of IC50 of the compound C=CCc1cccc(C2C(C(=O)OC)=C(C)NC(C)=C2[N+](=O)[O-])c1OCCCCN1CCN(c2ccccc2OC)CC1 (centres unmarked) [Example 144] is ____.
2.49

Fill blank: measured log10 of IC50 of the compound COc1ccccc1N1CCN(CCCOc2cccc(C3C(C(=O)Nc4ccccc4)=C(C)NC(C)=C3[N+](=O)[O-])c2)CC1 (centres unmarked) [Example 122] is ____.
2.36

Fill blank: measured log10 of IC50 of the compound COC(=O)C1=C(C)NC(C)=C([N+](=O)[O-])C1c1cccc(OC)c1OCCN1CCN(c2ccccc2OC)CC1 (centres unmarked) [Example 87] is ____.
1.68

Fill blank: measured log10 of IC50 of the compound COC(=O)C1=C(C)NC(C)=C([N+](=O)[O-])C1c1cccc(OCCCN2CCN(c3ccccc3Cl)CC2)c1 (centres unmarked) [Example 132] is ____.
2.11

Fill blank: measured log10 of IC50 of the compound COC(=O)C1=C(C)NC(C)=C([N+](=O)[O-])C1c1ccccc1OCCCN1CCN(c2ccccc2OC)CC1 (centres unmarked) [Example 88] is ____.
2.41

Fill blank: measured log10 of IC50 of the compound COC(=O)C1=C(C)NC(C)=C([N+](=O)[O-])C1c1cccc(OCCCN2CCN(c3ccccc3C)CC2)c1 (centres unmarked) [Example 131] is ____.
2.18

Fill blank: measured log10 of IC50 of the compound COC(=O)C1=C(C)NC(C)=C([N+](=O)[O-])C1c1cccc(OCCCCCN2CCN(c3ccccc3OC)CC2)c1 (centres unmarked) [Example 113] is ____.
2.76

Fill blank: measured log10 of IC50 of the compound COC(=O)C1=C(C)NC(C)=C([N+](=O)[O-])C1c1cc(Br)ccc1OCCCCN1CCN(c2ccccc2OC)CC1 (centres unmarked) [Example 142] is ____.
2.40

Fill blank: measured log10 of IC50 of the compound COC(=O)C1=C(C)NC(C)=C([N+](=O)[O-])C1c1ccc(OCCCN2CCN(c3ccccc3OC)CC2)cc1 (centres unmarked) [Example 135] is ____.
2.63

Fill blank: measured log10 of IC50 of the compound COc1ccccc1N1CCN(CCCCOC(=O)C2=C(C)NC(C)=C([N+](=O)[O-])C2c2cccc(C(F)(F)F)c2)CC1 (centres unmarked) [Example 57] is ____.
2.99

Fill blank: measured log10 of IC50 of the compound COC(=O)C1=C(C)NC(C)=C([N+](=O)[O-])C1c1cccc(OCCCCCCN2CCN(c3ccccc3OC)CC2)c1 (centres unmarked) [Example 130] is ____.
2.52

Fill blank: measured log10 of IC50 of the compound COC(=O)C1=C(C)NC(C)=C([N+](=O)[O-])C1c1cccc(OCCCCN2CCN(c3ccccc3OC)CC2)c1 (centres unmarked) [Example 107] is ____.
2.61

Fill blank: measured log10 of IC50 of the compound COC(=O)C1=C(C)NC(C)=C([N+](=O)[O-])C1c1cccc(OCC#CCN2CCN(c3ccccc3OC)CC2)c1 (centres unmarked) [Example 127] is ____.
3.43

Fill blank: measured log10 of IC50 of the compound COC(=O)C1=C(C)NC(C)=C([N+](=O)[O-])C1c1cccc([N+](=O)[O-])c1OCCCN1CCN(c2ccccc2OC)CC1 (centres unmarked) [Example 139] is ____.
2.15

Fill blank: measured log10 of IC50 of the compound COC(=O)C1=C(C)NC(C)=C([N+](=O)[O-])C1c1ccccc1OCCCCCN1CCN(c2ccccc2OC)CC1 (centres unmarked) [Example 59] is ____.
2.11
